Provide the recorded SPOT peptide array binding signal intensity for the entries that follow.
measured.target: AgBzz1-D1
protocol.notes: SPOT peptide array binding signal intensity (averaged, normalized) (arbitrary units (background-subtracted, floor 0; scale differs between SH3 domains)); higher = stronger binding of the SH3 domain to the peptide
Please respond with just the number, no unit label.

What value of measured SPOT peptide array binding signal intensity is listed for LLGRKRPVMERVVDI ?
47

Look at this binder and give its reported SPOT peptide array binding signal intensity. PPPPPPPPPPPLPQS
5

Looking for the measured SPOT peptide array binding signal intensity of APKHAPPPVPNETDN , can you help?
72

May I ask what SPOT peptide array binding signal intensity has been recorded for LKRITSPPLPPRADS ?
87.5

For the binder shown here, RLSFFFPLDPAYIRN , give the reported SPOT peptide array binding signal intensity.
27

# lookup: SPOT peptide array binding signal intensity of FYHRPAPKPPVTKKV
89

Could you share which SPOT peptide array binding signal intensity value was measured for VSKLRSPNTPRRLRK ?
65.5

For the binder shown here, LTRRFPFLFPFDTRM , give the reported SPOT peptide array binding signal intensity.
13

For the binder shown here, GDHPKGPPPPPPPDE , give the reported SPOT peptide array binding signal intensity.
870

Look at this binder and give its reported SPOT peptide array binding signal intensity. VATSTSPKLPPRGKQ
84

Looking for the measured SPOT peptide array binding signal intensity of ISRRRLPVIMHRLKM , can you help?
49.5

Give its SPOT peptide array binding signal intensity value. Item: PKRRAPPPVPKKPSS
2030

Which SPOT peptide array binding signal intensity value belongs to DKKTKPTPPPKPSHL ?
61

Return reported SPOT peptide array binding signal intensity; argument: NAGIRPKFILALNDE
44

Data provenance is the supplement of paper PMC4466140.
